Provide the recorded cytotoxicity at 70.5 h for the entries that follow.
assay: Human HepG2 cell viability assay in 384 well format; type: toxicity, cell-based; design: dose 125 nL, time 70.5 hour; concentration not given beside the values; settings: HepG2 cells, read-out: Inhibition
Answers are plain numbers, in %.

Example results:
COMPOUND: CN(Cc1cnn(C)c1)S(=O)(=O)N1CCCCCC1
UNIT INFO: %
cytotoxicity at 70.5 h: -9.53
--
COMPOUND: CS(=O)(=O)CC1CCCN(c2ncnc3c2Cc2ccccc2OC3)C1 (configuration not stated)
UNIT INFO: %
cytotoxicity at 70.5 h: -9.52
--
COMPOUND: COc1ccncc1NC(=O)C1(c2ccccc2)CC1
UNIT INFO: %
cytotoxicity at 70.5 h: -8.43
--
COMPOUND: O=C(O)[C@@H]1CN(C2CCOCC2)C[C@H]1C1CC1
UNIT INFO: %
cytotoxicity at 70.5 h: -7.25
--
COMPOUND: C=C(C)CN1CCC(NC(=O)Nc2ccc(F)c(C(=O)NC)c2)CC1
UNIT INFO: %
cytotoxicity at 70.5 h: 21.9
--
COMPOUND: O=C(CN(C1=NCCCC1)c1ccccc1)c1ccccc1
UNIT INFO: %
cytotoxicity at 70.5 h: 25.2
--
COMPOUND: O=C(c1cc2c(s1)CCC2)N1CCCC(c2cnccn2)C1 (configuration not stated)
UNIT INFO: %
cytotoxicity at 70.5 h: -17
--
COMPOUND: Cc1cn(Cc2ccccc2)nc1N
UNIT INFO: %
cytotoxicity at 70.5 h: 2.81

Fill in cytotoxicity at 70.5 h for each of the 4 compounds listed.
1. CN(C)C(=O)COCC1CN(Cc2cccs2)Cc2ncn(C)c21 (configuration not stated)
2. CCc1nccn1CC(=O)N1CCN(C2CCc3ccccc3C2)CC1 (configuration not stated)
3. O=C(NCC1CCCOC1)c1ccc(-c2cccs2)[nH]c1=O (configuration not stated)
4. CC(C)n1c(=O)c2sccc2n(CC(=O)Nc2cccc(Cl)c2)c1=O

Found:
1: 17.3; 2: -13.3; 3: 4.28; 4: -12.8

---

Provide the recorded cytotoxicity at 70.5 h for the entries that follow.
assay: Human HepG2 cell viability assay in 384 well format; format: toxicity, cell-based; set-up: dose 125 nL, time 70.5 hour; concentration not given beside the values; details: HepG2 cells, read-out: Inhibition

MOLECULE: CCn1cc(CN2C[C@H]3CC[C@@H]2CN(C(=O)c2cnccn2)C3)cn1
MEASURE: cytotoxicity at 70.5 h
OBSERVED MEASUREMENT: -5.14%

MOLECULE: Cc1cc(C(=O)N2CCc3nnc(N)cc3C2)c(C)n1C1CC1
MEASURE: cytotoxicity at 70.5 h
OBSERVED MEASUREMENT: -12.1%

MOLECULE: COc1cc(CN(C)C(=O)NCc2cccnc2OC)ccc1SC
MEASURE: cytotoxicity at 70.5 h
OBSERVED MEASUREMENT: -0.299%

MOLECULE: CCNC(=O)N1CCC(c2ccccc2)C1 (stereo unspecified)
MEASURE: cytotoxicity at 70.5 h
OBSERVED MEASUREMENT: 2.66%

MOLECULE: N#CC1(NC(=O)CN2CCc3c(ncn3C3CC3)C2)CCCC1
MEASURE: cytotoxicity at 70.5 h
OBSERVED MEASUREMENT: -2.71%

Read the next record carefully.
// cytotoxicity at 70.5 h lookup, molecule = CC1CCN(c2cc(NC(=O)C3CC3)ncn2)CC1 , result: 0.806%
